Origin of the recorded values: patent US12371454B2

# experimental target: Kras and SOS1 (biotin-tagged human Kras loaded with GDP, His-tagged human SOS1) (Homo sapiens, UniProt P01116, G12D)
# Construct: made in house; host or cells: E. coli (stated for Kras only)
# Sequence (P01116 1-188 isoform P01116-2 G12D): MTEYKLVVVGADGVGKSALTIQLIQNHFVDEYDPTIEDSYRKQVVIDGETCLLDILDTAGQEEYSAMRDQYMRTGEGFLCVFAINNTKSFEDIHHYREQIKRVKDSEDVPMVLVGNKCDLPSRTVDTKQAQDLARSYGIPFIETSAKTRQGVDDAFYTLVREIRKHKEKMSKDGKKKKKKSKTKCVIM
# test: Protein-protein interaction inhibition between Kras and SOS1 (KrasGl2D-SOS PPI) using AlphaScreen
# Format: binding
# test conditions: AlphaScreen; biotin-tagged human Kras loaded with GDP, His-tagged human SOS1; read-out: KRAS G12D-SOS PPI IC50
pIC50: −log10 of the molar value. Starred links: 1 amine or outer side, 2 acyl side, 3 side chain; linkers in the order of their positions; H or OH if unused. Positions of bridges follow the written chain, without caps; N, C: chain ends. Non-standard residues stand in square brackets, D forms with d. Residues, ends and D or L forms follow the SMILES beside them. *: point of attachment. hPhe(3-Cl-4-CF3) = N[C@@H](CCc1ccc(C(F)(F)F)c(Cl)c1)C(=O)O; NMePhe(4-CF3) = CN[C@@H](Cc1ccc(C(F)(F)F)cc1)C(=O)O; 3Oxa8azabicyclo(3.2.1)octane = C1CC2COCC1N2*; NMeAbu(4,4,4-F3) = CN[C@@H](CC(F)(F)F)C(=O)O; NMePhe(4-F) = CN[C@@H](Cc1ccc(F)cc1)C(=O)O; NMedβ3hAla = C[C@H](CC(=O)[*:2])N(C)[*:1]; NMeAla(cPent) = CN[C@@H](CC1CCCC1)C(=O)O; NMeGly(cPent) = CN[C@H](C(=O)O)C1CCCC1; Phe(3-I) = N[C@@H](Cc1cccc(I)c1)C(=O)O; Phe(4-Me) = Cc1ccc(C[C@H](N)C(=O)O)cc1; Pro(4,4-F2) = O=C(O)[C@@H]1CC(F)(F)CN1; NMeCha = CN[C@@H](CC1CCCCC1)C(=O)O; NMeChg = CN[C@H](C(=O)O)C1CCCCC1; NMeD = CN[C@@H](CC(=O)O)C(=O)O; NMeL = CN[C@@H](CC(C)C)C(=O)O; NMeV = CN[C@H](C(=O)O)C(C)C; d(β3hA) = C[C@@H](N)CC(=O)O; NMeA = CN[C@@H](C)C(=O)O; NMeAib = CNC(C)(C)C(=O)O; Piperidide = C1CCN(*)CC1; Pyrrolidide = C1CCN(*)C1; dNMeA = CN[C@H](C)C(=O)O; Ac5c = NC1(C(=O)O)CCCC1; Aze = O=C(O)[C@@H]1CCN1; Ac4c = NC1(C(=O)O)CCC1; Sar = CNCC(=O)O
Classification by pIC50 follows these ranges: zone 1: < 8; zone 2: ≥ 8 and < 9; zone 3: ≥ 9

Please report the category associated with CC[C@H](C)[C@@H]1NC(=O)[C@H](CC(C)C)N(C)C(=O)C[C@@H](C(=O)N2CCCCC2)N(C)C(=O)[C@H](C(C)C)N(C)C(=O)C2(CCC2)NC(=O)[C@@H]2CCCN2C(=O)[C@H](CCc2ccc(C(F)(F)F)c(Cl)c2)NC(=O)CN(C)C(=O)[C@H](CC2CCCCC2)N(C)C(=O)CN(C)C(=O)CN(C)C1=O [Compound 712] ([NMeL]I[Sar][Sar][NMeCha][Sar][hPhe(3-Cl-4-CF3)]P[Ac4c][NMeV][NMeD]-Piperidide; lactam N-11) , nothing else. zone 2

Please report the category associated with CC[C@H](C)[C@@H]1NC(=O)[C@H](C)N(C)C(=O)C[C@@H](C)N(C)C(=O)[C@H](CC2CCCC2)N(C)C(=O)C(C)(C)N(C)C(=O)[C@@H]2CCCN2C(=O)[C@H](CCc2ccc(C(F)(F)F)c(Cl)c2)NC(=O)CN(C)C(=O)[C@H](CC2CCCCC2)N(C)C(=O)[C@@H]2CCN2C(=O)[C@H](C)N(C)C1=O [Compound 2158] (cyclo([Aze][NMeCha][Sar][hPhe(3-Cl-4-CF3)]P[NMeAib][NMeAla(cPent)][NMedβ3hAla][NMeA]I[NMeA])) , nothing else. zone 1

Please report the category associated with CC(C)C[C@H]1C(=O)N[C@@H](C(C)C)C(=O)N(C)CC(=O)N(C)CC(=O)N(C)[C@@H](CC2CCCCC2)C(=O)N(C)CC(=O)N[C@@H](CCc2ccc(C(F)(F)F)c(Cl)c2)C(=O)N2CCC[C@H]2C(=O)NC2(CCCC2)C(=O)N(C)[C@@H](C2CCCCC2)C(=O)N(C)[C@H](C(=O)N2C3CCC2COC3)CC(=O)N1C [Compound 1928] ([NMeL]V[Sar][Sar][NMeCha][Sar][hPhe(3-Cl-4-CF3)]P[Ac5c][NMeChg][NMeD]-{3Oxa8azabicyclo(3.2.1)octane}; lactam N-11) , nothing else. zone 3

Please report the category associated with CC[C@H](C)[C@@H]1NC(=O)[C@H](C)N(C)C(=O)C[C@@H](C)NC(=O)[C@H](C2CCCC2)N(C)C(=O)C2(CCCC2)NC(=O)[C@@H]2CCCN2C(=O)[C@H](CCc2ccc(C(F)(F)F)c(Cl)c2)NC(=O)CN(C)C(=O)[C@H](Cc2ccc(F)cc2)N(C)C(=O)[C@@H]2CCCN2C(=O)CN(C)C1=O [Compound 146] (cyclo([Ac5c][NMeGly(cPent)][d(β3hA)][NMeA]I[Sar]P[NMePhe(4-F)][Sar][hPhe(3-Cl-4-CF3)]P)) , nothing else. zone 2

Please report the category associated with CC[C@H](C)[C@@H]1NC(=O)[C@H](CC(C)C)N(C)C(=O)C[C@@H](C(=O)N2CCCCC2)N(C)C(=O)[C@H](CC(C)C)NC(=O)C(C)(C)N(C)C(=O)[C@H](Cc2ccc(C)cc2)NC(=O)[C@H](Cc2cccc(I)c2)NC(=O)CN(C)C(=O)[C@H](CC2CCCCC2)N(C)C(=O)CN(C)C(=O)CN(C)C1=O [Compound 166] ([NMeL]I[Sar][Sar][NMeCha][Sar][Phe(3-I)][Phe(4-Me)][NMeAib]L[NMeD]-Piperidide; lactam N-11) , nothing else. zone 1

Please report the category associated with CC[C@H](C)[C@@H]1NC(=O)[C@H](C)N(C)C(=O)C[C@@H](C)NC(=O)[C@H](C2CCCC2)N(C)C(=O)C2(CCCC2)NC(=O)[C@@H]2CCCN2C(=O)[C@H](CCc2ccc(C(F)(F)F)c(Cl)c2)NC(=O)[C@@H](C)N(C)C(=O)[C@H](Cc2ccc(F)cc2)N(C)C(=O)CN(C)C(=O)CN(C)C1=O [Compound 206] (cyclo([Ac5c][NMeGly(cPent)][d(β3hA)][NMeA]I[Sar][Sar][NMePhe(4-F)][dNMeA][hPhe(3-Cl-4-CF3)]P)) , nothing else. zone 1

Please report the category associated with CC[C@H](C)[C@@H]1NC(=O)[C@H](CC(F)(F)F)N(C)C(=O)C[C@@H](C(=O)N2CCCC2)N(C)C(=O)[C@H](C2CCCCC2)N(C)C(=O)C2(CCCC2)NC(=O)[C@@H]2CC(F)(F)CN2C(=O)[C@H](CCc2ccc(C(F)(F)F)c(Cl)c2)NC(=O)CN(C)C(=O)[C@H](Cc2ccc(C(F)(F)F)cc2)N(C)C(=O)CN(C)C(=O)CN(C)C1=O [Compound 1196] ([NMeAbu(4,4,4-F3)]I[Sar][Sar][NMePhe(4-CF3)][Sar][hPhe(3-Cl-4-CF3)][Pro(4,4-F2)][Ac5c][NMeChg][NMeD]-Pyrrolidide; lactam N-11) , nothing else. zone 3
